Just for reference, PubChem BioAssay (NCI) is where these values come from.

# assay-text: NCI Yeast Anticancer Drug Screen. Data for the bub3 strain (AID 167)
# condition-details: S. cerevisiae bub3 mutant strain, at 5.0 µM (retest, dose inferred, filed as 0.5), hits give high values
About 79,000 compounds went through this panel and 15% of them were active in at least one assay; those are over-represented in the sample as a whole.
endpoint-label: growth inhibition (%)
Number in %, nothing else.

Record summary for CCOC(=O)C[n+]1c(C)cc(-c2ccccc2)cc1C : reported growth inhibition = 24

Record summary for O=C1OCc2cccc3cccc1c23 : reported growth inhibition = 11

Record summary for CCOC(=O)CCc1ccc(OC)c(OC)c1 : reported growth inhibition = -2

Record summary for N#CSCCSC#N : reported growth inhibition = 9

Record summary for C=C1C(=O)OC2C/C(C)=C/CC/C(C)=C/CCC3(COC(C)=O)OC3CC12 (configuration not stated) : reported growth inhibition = 11

Record summary for CC(C)CNc1cc(Cl)nc(N)n1 : reported growth inhibition = 1

Record summary for CCOC(=O)c1[nH]n(-c2ccccc2)c(=O)c1/C=N/C(=S)Nc1ccccc1OC : reported growth inhibition = 0

Record summary for Cc1c(CC=C(c2ccccc2)c2ccccc2)cccc1C[N+](C)(C)C : reported growth inhibition = 25

Record summary for O=C(O)CCSSCCCCCS(=O)O : reported growth inhibition = -3

Record summary for CCCCCCCCCC(=O)NN=C(C)C : reported growth inhibition = -72

Record summary for O=C(NCCCCCCNC(=O)n1cc(F)c(=O)[nH]c1=O)NCCCOCCOCCOCCOCCOCCOCCOCCOCCOCCOCCOCCOCCOCCOCCOCCOCCOCCOCCOCCOCCOCCCNC(=O)C(O)C(O)C(O)C(O)CO (configuration not stated) : reported growth inhibition = 11

Record summary for O=C(CNC(=O)C(CSCc1ccccc1)NC(=O)OCc1ccccc1)Oc1c(Cl)c(Cl)c(Cl)c(Cl)c1Cl (configuration not stated) : reported growth inhibition = -4
